# Test system: synchronized Pf3D7 strain cultures (rings, trophozoites)
# TEST: Stage-specificity and parasitemia titres on synchronized Pf3D7 cultures (Giemsa smears)
# Format: cell-based, Plasmodium falciparum
# REPORTED CONDITIONS: 16 hours after incubation with trophozoite stage, Fig. 5
QUANTITY MEASURED: effect on mature blood stage parasite titres (parasitemia)

[ask] Please look up its effect on mature blood stage parasite titres (parasitemia): CC(C)C[C@H](c1nc2ccccc2n1Cc1cn(-c2ccccc2)nn1)N1C(=O)c2ccccc2C1=O
[reply] negligible

[ask] Could you tell me which effect on mature blood stage parasite titres (parasitemia) is on file for CC(C)[C@H](c1nc2ccccc2n1Cc1cn(-c2ccc(F)cc2)nn1)N1C(=O)c2ccccc2C1=O ?
[reply] reduction in parasitemia

[ask] Entry under review: CC[C@@H](C)[C@H](c1nc2ccccc2n1Cc1cn(-c2ccc(F)cc2)nn1)N1C(=O)c2ccccc2C1=O . Reported effect on mature blood stage parasite titres (parasitemia)?
[reply] reduction in parasitemia

[ask] Find the recorded effect on mature blood stage parasite titres (parasitemia) belonging to CC(C)C[C@H](c1nc2ccccc2n1Cc1c[nH]nn1)N1C(=O)c2ccccc2C1=O and report it.
[reply] negligible

====

QUANTITY MEASURED: melting point

[ask] melting point for CC(C)[C@H](c1nc2ccccc2n1Cc1cn(-c2ccccc2)nn1)N1C(=O)c2ccccc2C1=O ?
[reply] 221 to 223 °C

[ask] Can you share its melting point? I mean this molecule: CC[C@@H](C)[C@H](c1nc2ccccc2n1Cc1cn(-c2ccc(Cl)cc2)nn1)N1C(=O)c2ccccc2C1=O
[reply] 194 to 196 °C

[ask] Which melting point value is on record for CC(C)[C@H](c1nc2ccccc2n1Cc1cn(-c2ccc(Cl)cc2)nn1)N1C(=O)c2ccccc2C1=O ?
[reply] 182 to 184 °C

====

# TEST: MTT cytotoxicity assay in U937 cells
# Format: cell-based
# REPORTED CONDITIONS: human, U937 cells (CC50) versus 3D7 parasites (IC50); read-out: selectivity index (SI)
Please go through the items and note down their selectivity ratio at 24 h.
The reply should be a number, written without any unit.

[ask] Need selectivity ratio at 24 h of CC(C)C[C@H](c1nc2ccccc2n1Cc1c[nH]nn1)N1C(=O)c2ccccc2C1=O [Compound 6u] , thanks.
[reply] 2.31

[ask] For the compound shown here, CC[C@@H](C)[C@H](c1nc2ccccc2n1Cc1cn(-c2ccc(F)cc2)nn1)N1C(=O)c2ccccc2C1=O [Compound 6h] , give the reported selectivity ratio at 24 h.
[reply] 41.2
